Test system: MCF10A
method notes: one-nucleolus phenotype percent effect (relative to siNT 0% and siNOL11 100%); higher = more cells with one nucleolus (ribosome biogenesis inhibition)
settings: 20 nM; 72 h

[
  {
    "chain sequence": "UUACACACAACUGAGGAUCAUA [hsa-miR-3941]",
    "target entity": "MCF10A",
    "units label": "%",
    "one-nucleolus phenotype percent effect": 7.76
  },
  {
    "chain sequence": "UUCGGGCUGGCCUGCUGCUCCGG [hsa-miR-3944-3p]",
    "target entity": "MCF10A",
    "units label": "%",
    "one-nucleolus phenotype percent effect": -7.09
  },
  {
    "chain sequence": "GUCCAGUUUUCCCAGGAAUCCCU [hsa-miR-145-5p]",
    "target entity": "MCF10A",
    "units label": "%",
    "one-nucleolus phenotype percent effect": -4.84
  },
  {
    "chain sequence": "UUGCUUGAACCCAGGAAGUGGA [hsa-miR-1273e]",
    "target entity": "MCF10A",
    "units label": "%",
    "one-nucleolus phenotype percent effect": 53.6
  },
  {
    "chain sequence": "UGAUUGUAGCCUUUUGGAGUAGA [hsa-miR-508-3p]",
    "target entity": "MCF10A",
    "units label": "%",
    "one-nucleolus phenotype percent effect": 23.4
  },
  {
    "chain sequence": "CCUGUUCUCCAUUACUUGGCUC [hsa-miR-26b-3p]",
    "target entity": "MCF10A",
    "units label": "%",
    "one-nucleolus phenotype percent effect": 7.43
  },
  {
    "chain sequence": "UGGGAGGGGAGAGGCAGCAAGCA [hsa-miR-4728-5p]",
    "target entity": "MCF10A",
    "units label": "%",
    "one-nucleolus phenotype percent effect": 46
  },
  {
    "chain sequence": "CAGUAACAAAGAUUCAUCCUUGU [hsa-miR-802]",
    "target entity": "MCF10A",
    "units label": "%",
    "one-nucleolus phenotype percent effect": -6.9
  },
  {
    "chain sequence": "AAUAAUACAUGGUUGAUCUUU [hsa-miR-369-3p]",
    "target entity": "MCF10A",
    "units label": "%",
    "one-nucleolus phenotype percent effect": -9.36
  },
  {
    "chain sequence": "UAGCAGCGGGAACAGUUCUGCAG [hsa-miR-503-5p]",
    "target entity": "MCF10A",
    "units label": "%",
    "one-nucleolus phenotype percent effect": 14.4
  },
  {
    "chain sequence": "CGAGCCUCAAGCAAGGGACUU [hsa-miR-2114-3p]",
    "target entity": "MCF10A",
    "units label": "%",
    "one-nucleolus phenotype percent effect": 19.8
  },
  {
    "chain sequence": "AUAUGCCUGGCUAGCUCCUC [hsa-miR-4633-5p]",
    "target entity": "MCF10A",
    "units label": "%",
    "one-nucleolus phenotype percent effect": 27.8
  },
  {
    "chain sequence": "GUGCCAGCUGCAGUGGGGGAG [hsa-miR-1202]",
    "target entity": "MCF10A",
    "units label": "%",
    "one-nucleolus phenotype percent effect": -8.53
  },
  {
    "chain sequence": "UGGGAGCUGGACUACUUC [hsa-miR-4300]",
    "target entity": "MCF10A",
    "units label": "%",
    "one-nucleolus phenotype percent effect": 21.3
  },
  {
    "chain sequence": "CUCGGGCGGAGGUGGUUGAGUG [hsa-miR-4750-5p]",
    "target entity": "MCF10A",
    "units label": "%",
    "one-nucleolus phenotype percent effect": 14.8
  },
  {
    "chain sequence": "CCAAACCAGUCGUGCCUGUGG [hsa-miR-6715a-3p]",
    "target entity": "MCF10A",
    "units label": "%",
    "one-nucleolus phenotype percent effect": 24.3
  },
  {
    "chain sequence": "ACUGGGGAGCAGAAGGAGAACC [hsa-miR-4667-5p]",
    "target entity": "MCF10A",
    "units label": "%",
    "one-nucleolus phenotype percent effect": 67.8
  },
  {
    "chain sequence": "UCUUUUCUUUGAGACUCACU [hsa-miR-627-3p]",
    "target entity": "MCF10A",
    "units label": "%",
    "one-nucleolus phenotype percent effect": -15.6
  },
  {
    "chain sequence": "UUUGAGGCUACAGUGAGAUGUG [hsa-miR-1304-5p]",
    "target entity": "MCF10A",
    "units label": "%",
    "one-nucleolus phenotype percent effect": 0.012
  },
  {
    "chain sequence": "UACUGCAUCAGGAACUGAUUGGA [hsa-miR-217]",
    "target entity": "MCF10A",
    "units label": "%",
    "one-nucleolus phenotype percent effect": 0.807
  },
  {
    "chain sequence": "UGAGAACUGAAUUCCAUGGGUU [hsa-miR-146a-5p]",
    "target entity": "MCF10A",
    "units label": "%",
    "one-nucleolus phenotype percent effect": 9.23
  },
  {
    "chain sequence": "UGCUAGUCUGGACUGAUAUGGU [hsa-miR-8086]",
    "target entity": "MCF10A",
    "units label": "%",
    "one-nucleolus phenotype percent effect": -8.07
  },
  {
    "chain sequence": "UUCCAGCCCUGGUAGGCGCCGCG [hsa-miR-6720-5p]",
    "target entity": "MCF10A",
    "units label": "%",
    "one-nucleolus phenotype percent effect": 45
  },
  {
    "chain sequence": "CUAUACAAUCUAUUGCCUUCCC [hsa-let-7f-1-3p]",
    "target entity": "MCF10A",
    "units label": "%",
    "one-nucleolus phenotype percent effect": -6.49
  }
]
